Value source: patent EP0100527A1

# Test Target: Lipoxygenase in Kaninchen-PMN-Leukozyten (Oryctolagus cuniculus)
# Construct: Die polymorphkernigen Leukozyten des Menschen und des Kaninchens metabolisieren die Arachidonsäure; endogenous in cells; host or cells: rabbit polymorphonuclear (PMN) leukocytes
# Test Description: Inhibition of lipoxygenase (release of 5-HETE and leukotriene B4) in rabbit PMN leukocytes
# Format: cell-based
Here, each record is paired with measured Minimale Konzentration für die Hemmung der Lipoxygenase in Kaninchen-PMN-Leukozyten data.

Lipoxygenase in Kaninchen-PMN-Leukozyten (Oryctolagus cuniculus) assay, molecule CC1=C(C(=O)OCc2ccccc2)Sc2ccccc2N1 , recorded Minimale Konzentration für die Hemmung der Lipoxygenase in Kaninchen-PMN-Leukozyten = 5x10^-7 - 10^-6 g/ml

Lipoxygenase in Kaninchen-PMN-Leukozyten (Oryctolagus cuniculus) assay, molecule CCOC(=O)C1=C(CC)Nc2ccccc2S1 , recorded Minimale Konzentration für die Hemmung der Lipoxygenase in Kaninchen-PMN-Leukozyten = 5x10^-7 - 10^-6 g/ml

Lipoxygenase in Kaninchen-PMN-Leukozyten (Oryctolagus cuniculus) assay, molecule CSCCOC(=O)C1=C(C)Nc2ccccc2S1 , recorded Minimale Konzentration für die Hemmung der Lipoxygenase in Kaninchen-PMN-Leukozyten = 5x10^-7 - 10^-6 g/ml

----------
# Test Target: Lipoxygenase in Kaninchen-PMN-Leukozyten (Oryctolagus cuniculus)
# Construct: Die polymorphkernigen Leukozyten des Menschen und des Kaninchens metabolisieren die Arachidonsäure; endogenous in cells; host or cells: rabbit polymorphonuclear (PMN) leukocytes
# Test Description: Inhibition of lipoxygenase (release of 5-HETE and leukotriene B4) in rabbit PMN leukocytes
# Format: cell-based
Experimental Endpoint: Minimale Konzentration für die Hemmung der Lipoxygenase in Kaninchen-PMN-Leukozyten

Examples with their reported Minimale Konzentration für die Hemmung der Lipoxygenase in Kaninchen-PMN-Leukozyten follow.
>>> result("COc1ccc2c(c1)SC(C(=O)OCCC#N)=C(C)N2")
"10^-6 g/ml"
>>> result("CC1=C(C(=O)OC2CCCCC2)Sc2ccccc2N1")
"5x10^-7 - 10^-6 g/ml"

Now for another entry.
# Minimale Konzentration für die Hemmung der Lipoxygenase in Kaninchen-PMN-Leukozyten of CC1=C(C(=O)OCCC#N)Sc2ccccc2N1 = 5x10^-7 - 10^-6 g/ml

----------
Here, each record is paired with measured Minimale Konzentration für die Hemmung der Lipoxygenase in Kaninchen-PMN-Leukozyten data.
# Test Target: Lipoxygenase in Kaninchen-PMN-Leukozyten (Oryctolagus cuniculus, UniProt G1SNX0)
# Construct: Die polymorphkernigen Leukozyten des Menschen und des Kaninchens metabolisieren die Arachidonsäure; endogenous in cells; host or cells: rabbit polymorphonuclear (PMN) leukocytes
# Sequence (G1SNX0 1-674): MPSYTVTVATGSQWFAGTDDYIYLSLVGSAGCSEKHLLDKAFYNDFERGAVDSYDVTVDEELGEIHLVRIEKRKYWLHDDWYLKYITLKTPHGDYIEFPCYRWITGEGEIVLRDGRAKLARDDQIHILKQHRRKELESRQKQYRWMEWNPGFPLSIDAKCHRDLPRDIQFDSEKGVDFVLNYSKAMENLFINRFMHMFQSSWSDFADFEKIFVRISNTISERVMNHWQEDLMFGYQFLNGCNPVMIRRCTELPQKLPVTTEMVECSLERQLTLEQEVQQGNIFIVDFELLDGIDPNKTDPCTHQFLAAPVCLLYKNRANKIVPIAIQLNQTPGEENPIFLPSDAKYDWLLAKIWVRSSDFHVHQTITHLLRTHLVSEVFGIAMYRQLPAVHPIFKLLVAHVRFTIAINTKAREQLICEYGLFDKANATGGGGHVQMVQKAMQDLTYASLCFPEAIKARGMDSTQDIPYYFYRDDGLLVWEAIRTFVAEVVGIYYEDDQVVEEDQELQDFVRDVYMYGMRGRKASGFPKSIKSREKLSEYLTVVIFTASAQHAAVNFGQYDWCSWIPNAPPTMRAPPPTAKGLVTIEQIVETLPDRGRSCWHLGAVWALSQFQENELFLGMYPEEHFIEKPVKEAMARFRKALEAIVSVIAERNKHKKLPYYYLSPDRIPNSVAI
# Test Description: Inhibition of lipoxygenase (release of 5-HETE and leukotriene B4) in rabbit PMN leukocytes
# Format: cell-based

Examples with their reported Minimale Konzentration für die Hemmung der Lipoxygenase in Kaninchen-PMN-Leukozyten follow.
>>> result("CSCCOC(=O)C1=C(C)Nc2ccc(C)cc2S1")
"10^-6 g/ml"
>>> result("CC1=C(C(=O)OCCc2ccccc2)Sc2ccccc2N1")
"10^-6 g/ml"
>>> result("CCCCOC(=O)C1=C(C)Nc2ccccc2S1")
"10^-6 g/ml"
>>> result("CCN1C=C(C(=O)OC)Sc2cc([N+](=O)[O-])ccc21")
"5e-06 g/mL"
>>> result("CCN1C=C(C(=O)O)Sc2cc([N+](=O)[O-])ccc21")
"5e-06 g/mL"
>>> result("CCOC(=O)C1=CNc2ccc(OC)cc2S1")
"10^-6 g/ml"

# Minimale Konzentration für die Hemmung der Lipoxygenase in Kaninchen-PMN-Leukozyten of COC(=O)C1=C(C)Nc2ccccc2S1 = 5x10^-7 - 10^-6 g/ml

# Minimale Konzentration für die Hemmung der Lipoxygenase in Kaninchen-PMN-Leukozyten of CC(=O)C1=C(C)Nc2ccccc2S1 = 10^-6 g/ml
